System: Mythimna separata
testDetails: Insecticidal activity against Mythimna separata assessed as malformed moths with imperfect wings at day 27
Assay type: functional, organism-based
Active and inactive are the calls of the source. The rule behind the calls is not given here.
valueKind: Activity

[[record]]
molecule = "CC(=O)O[C@@H]1C[C@H](O)[C@@]23CO[C@H](OC(=O)c4ccc([N+](=O)[O-])cc4)[C@]1(C)[C@@H]2C[C@@H](O)[C@]1(C)[C@@H]3C(=O)[C@H](OC(C)=O)[C@@]2(C)C(c3ccoc3)C[C@H]3O[C@@]312 (single isomer, unassigned)"
recordedresult = "Active"

[[record]]
molecule = "CC(=O)O[C@@H]1C[C@H](O)[C@@]23CO[C@H](OC(=O)c4ccccc4Cl)[C@]1(C)[C@@H]2C[C@@H](O)[C@]1(C)[C@@H]3C(=O)[C@H](OC(C)=O)[C@@]2(C)C(c3ccoc3)C[C@H]3O[C@@]312 (single isomer, unassigned)"
recordedresult = "Active"

[[record]]
molecule = "CC(=O)O[C@@H]1C[C@H](O)[C@@]23CO[C@H](OC(=O)CCc4ccccc4)[C@]1(C)[C@@H]2C[C@@H](O)[C@]1(C)[C@@H]3C(=O)[C@H](OC(C)=O)[C@@]2(C)C(c3ccoc3)C[C@H]3O[C@@]312 (single isomer, unassigned)"
recordedresult = "Active"

[[record]]
molecule = "CC(=O)O[C@@H]1C[C@H](O)[C@@]23CO[C@H](OC(=O)c4ccccc4)[C@]1(C)[C@@H]2C[C@@H](O)[C@]1(C)[C@@H]3C(=O)[C@H](OC(C)=O)[C@@]2(C)C(c3ccoc3)C[C@H]3O[C@@]312 (single isomer, unassigned)"
recordedresult = "Active"


Here is another molecule to look at.
Prompt: Look up Activity for this molecule: CC(=O)O[C@@H]1C[C@H](O)[C@@]23CO[C@H](OC(=O)c4cccc(Cl)c4)[C@]1(C)[C@@H]2C[C@@H](O)[C@]1(C)[C@@H]3C(=O)[C@H](OC(C)=O)[C@@]2(C)C(c3ccoc3)C[C@H]3O[C@@]312 (single isomer, unassigned)
Response: Active

---

Provide the reported Activity of each item.
Test system: Mythimna separata
testDetails: Insecticidal activity against Mythimna separata Walker assessed as mortality rate at 1 mg/mL after 10 days by leaf dipping method
Type: functional
Numbers only, in %.

Guide cases for Activity, answers given:
[[record]]
compound = "CC(=O)O[C@@H]1C[C@H](O)[C@@]23CO[C@H](OC(=O)CCc4ccccc4)[C@]1(C)[C@@H]2C[C@@H](O)[C@]1(C)[C@@H]3C(=O)[C@H](OC(C)=O)[C@@]2(C)C(c3ccoc3)C[C@H]3O[C@@]312 (single isomer, unassigned)"
recordedresult = 20.7

[[record]]
compound = "CC(=O)O[C@@H]1C[C@H](O)[C@@]23CO[C@H](OC(=O)c4ccc(Cl)cc4)[C@]1(C)[C@@H]2C[C@@H](O)[C@]1(C)[C@@H]3C(=O)[C@H](OC(C)=O)[C@@]2(C)C(c3ccoc3)C[C@H]3O[C@@]312 (single isomer, unassigned)"
recordedresult = 20.7

[[record]]
compound = "CCC(=O)O[C@H]1OC[C@@]23[C@H]4C(=O)[C@H](OC(C)=O)[C@@]5(C)C(c6ccoc6)C[C@H]6O[C@]65[C@]4(C)[C@H](O)C[C@H]2[C@]1(C)[C@H](OC(C)=O)C[C@@H]3O (single isomer, unassigned)"
recordedresult = 24.1


Provide the reported Activity of each entry below, same order.
1. CC(=O)O[C@@H]1C[C@H](O)[C@@]23CO[C@H](OC(=O)Cc4ccccc4)[C@]1(C)[C@@H]2C[C@@H](O)[C@]1(C)[C@@H]3C(=O)[C@H](OC(C)=O)[C@@]2(C)C(c3ccoc3)C[C@H]3O[C@@]312 (single isomer, unassigned)
2. CC(=O)O[C@@H]1C[C@H](O)[C@@]23CO[C@H](OC(=O)/C=C/c4ccccc4)[C@]1(C)[C@@H]2C[C@@H](O)[C@]1(C)[C@@H]3C(=O)[C@H](OC(C)=O)[C@@]2(C)C(c3ccoc3)C[C@H]3O[C@@]312 (single isomer, unassigned)
3. CCCC(=O)O[C@H]1OC[C@@]23[C@H]4C(=O)[C@H](OC(C)=O)[C@@]5(C)C(c6ccoc6)C[C@H]6O[C@]65[C@]4(C)[C@H](O)C[C@H]2[C@]1(C)[C@H](OC(C)=O)C[C@@H]3O (single isomer, unassigned)
4. COc1ccc(C(=O)O[C@H]2OC[C@@]34[C@H]5C(=O)[C@H](OC(C)=O)[C@@]6(C)C(c7ccoc7)C[C@H]7O[C@]76[C@]5(C)[C@H](O)C[C@H]3[C@]2(C)[C@H](OC(C)=O)C[C@@H]4O)cc1 (single isomer, unassigned)
5. CC(=O)O[C@@H]1C[C@H](O)[C@@]23CO[C@@H](O)[C@]1(C)[C@@H]2C[C@@H](O)[C@]1(C)[C@@H]3C(=O)[C@H](OC(C)=O)[C@@]2(C)[C@H](c3ccoc3)C[C@H]3O[C@]321 [TOOSENDANIN]

Response:
1: 24.1; 2: 20.7; 3: 31; 4: 20.7; 5: 24.1

---

Provide the reported Activity of each item.
Tested on: Mythimna separata
testDetails: Insecticidal activity against Mythimna separata Walker assessed as mortality rate at 1 mg/mL after 10 days by leaf dipping method
Assay type: functional
Numbers only, in %.

[[record]]
compound = "CC(=O)O[C@@H]1C[C@H](O)[C@@]23CO[C@H](OC(=O)c4ccc([N+](=O)[O-])cc4)[C@]1(C)[C@@H]2C[C@@H](O)[C@]1(C)[C@@H]3C(=O)[C@H](OC(C)=O)[C@@]2(C)C(c3ccoc3)C[C@H]3O[C@@]312 (single isomer, unassigned)"
unitspec = "%"
recordedresult = 24.2

[[record]]
compound = "CC(=O)O[C@@H]1C[C@H](O)[C@@]23CO[C@H](OC(=O)c4cccc(Cl)c4)[C@]1(C)[C@@H]2C[C@@H](O)[C@]1(C)[C@@H]3C(=O)[C@H](OC(C)=O)[C@@]2(C)C(c3ccoc3)C[C@H]3O[C@@]312 (single isomer, unassigned)"
unitspec = "%"
recordedresult = 27.6


Here is another compound to look at.
Prompt: Look up Activity for this compound: CC(=O)O[C@@H]1C[C@H](O)[C@@]23CO[C@H](OC(=O)c4ccccc4)[C@]1(C)[C@@H]2C[C@@H](O)[C@]1(C)[C@@H]3C(=O)[C@H](OC(C)=O)[C@@]2(C)C(c3ccoc3)C[C@H]3O[C@@]312 (single isomer, unassigned)
Response: 20.7

---

Provide the reported Activity of each item.
System: Mythimna separata
testDetails: Insecticidal activity against Mythimna separata Walker assessed as mortality rate at 1 mg/mL after 35 days by leaf dipping method
Type: functional
Numbers only, in %.

Guide cases for Activity, answers given:
[[record]]
compound = "CC(=O)O[C@H]1OC[C@@]23[C@H]4C(=O)[C@H](OC(C)=O)[C@@]5(C)C(c6ccoc6)C[C@H]6O[C@]65[C@]4(C)[C@H](O)C[C@H]2[C@]1(C)[C@H](OC(C)=O)C[C@@H]3O (single isomer, unassigned)"
recordedresult = 50

[[record]]
compound = "CC(=O)O[C@@H]1C[C@H](O)[C@@]23CO[C@H](OC(=O)Cc4ccccc4)[C@]1(C)[C@@H]2C[C@@H](O)[C@]1(C)[C@@H]3C(=O)[C@H](OC(C)=O)[C@@]2(C)C(c3ccoc3)C[C@H]3O[C@@]312 (single isomer, unassigned)"
recordedresult = 42.3

[[record]]
compound = "CC(=O)O[C@@H]1C[C@H](O)[C@@]23CO[C@H](OC(=O)CCc4ccccc4)[C@]1(C)[C@@H]2C[C@@H](O)[C@]1(C)[C@@H]3C(=O)[C@H](OC(C)=O)[C@@]2(C)C(c3ccoc3)C[C@H]3O[C@@]312 (single isomer, unassigned)"
recordedresult = 53.9


Here is another compound to look at.
Prompt: Look up Activity for this compound: CC(=O)O[C@@H]1C[C@H](O)[C@@]23CO[C@H](OC(=O)c4ccccc4)[C@]1(C)[C@@H]2C[C@@H](O)[C@]1(C)[C@@H]3C(=O)[C@H](OC(C)=O)[C@@]2(C)C(c3ccoc3)C[C@H]3O[C@@]312 (single isomer, unassigned)
Response: 46.2

Entry source: ChEMBL document CHEMBL1759924
